Target: human Cystic Fibrosis Transmembrane Conductance Regulator (CFTR) harboring the ΔF508 mutation (Homo sapiens, UniProt P13569, DEL508-508)
Construct: expressed in transfected cells; host or cells: H441 carcinoma line (G418-selected)
Sequence (P13569 with tags, fused parts or gaps DEL508-508): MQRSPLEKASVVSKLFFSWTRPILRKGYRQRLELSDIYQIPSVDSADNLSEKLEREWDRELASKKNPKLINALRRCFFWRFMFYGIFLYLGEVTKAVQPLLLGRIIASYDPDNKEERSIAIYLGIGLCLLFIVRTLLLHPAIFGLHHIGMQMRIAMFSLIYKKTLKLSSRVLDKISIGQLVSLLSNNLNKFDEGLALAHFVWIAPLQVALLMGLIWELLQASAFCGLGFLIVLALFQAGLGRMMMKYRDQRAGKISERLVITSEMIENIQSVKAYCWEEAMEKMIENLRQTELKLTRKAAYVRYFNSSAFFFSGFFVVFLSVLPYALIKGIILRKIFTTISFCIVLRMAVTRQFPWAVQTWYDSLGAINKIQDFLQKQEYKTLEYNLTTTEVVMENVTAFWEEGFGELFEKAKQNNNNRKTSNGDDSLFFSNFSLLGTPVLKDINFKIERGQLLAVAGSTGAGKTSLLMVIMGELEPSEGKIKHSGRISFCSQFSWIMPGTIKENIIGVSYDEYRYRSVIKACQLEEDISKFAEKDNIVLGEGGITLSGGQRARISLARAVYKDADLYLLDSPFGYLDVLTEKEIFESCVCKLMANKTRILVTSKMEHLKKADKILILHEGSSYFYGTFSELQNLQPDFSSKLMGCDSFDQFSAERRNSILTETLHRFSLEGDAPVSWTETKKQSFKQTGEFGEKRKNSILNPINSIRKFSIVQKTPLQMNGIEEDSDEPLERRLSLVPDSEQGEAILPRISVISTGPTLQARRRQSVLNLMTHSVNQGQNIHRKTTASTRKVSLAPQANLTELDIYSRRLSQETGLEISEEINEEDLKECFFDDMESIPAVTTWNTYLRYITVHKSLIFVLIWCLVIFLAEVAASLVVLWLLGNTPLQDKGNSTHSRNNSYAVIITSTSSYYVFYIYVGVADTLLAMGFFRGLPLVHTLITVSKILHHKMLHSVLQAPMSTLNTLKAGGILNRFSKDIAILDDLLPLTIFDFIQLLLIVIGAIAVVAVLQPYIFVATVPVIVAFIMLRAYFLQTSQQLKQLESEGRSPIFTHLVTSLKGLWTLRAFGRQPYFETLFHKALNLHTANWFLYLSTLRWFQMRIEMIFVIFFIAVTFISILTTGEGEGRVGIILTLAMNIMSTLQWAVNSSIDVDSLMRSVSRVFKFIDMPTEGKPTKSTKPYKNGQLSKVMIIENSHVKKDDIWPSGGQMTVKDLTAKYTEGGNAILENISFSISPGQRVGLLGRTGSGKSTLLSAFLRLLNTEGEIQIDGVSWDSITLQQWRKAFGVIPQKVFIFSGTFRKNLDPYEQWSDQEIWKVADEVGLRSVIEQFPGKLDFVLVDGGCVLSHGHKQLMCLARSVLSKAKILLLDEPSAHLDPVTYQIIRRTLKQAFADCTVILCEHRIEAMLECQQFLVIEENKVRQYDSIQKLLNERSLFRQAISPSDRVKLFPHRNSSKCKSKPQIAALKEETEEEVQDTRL
Test: H441 cell ΔF508-CFTR-HRP cell surface assay (Emax and EC50)
Assay type: cell-based
Settings: NCI-H441, NA = Not active
Endpoint: Emax (%)

> print(dat)
                                   compound  measured.value
1  COc1ccc2c(OCc3ccc(C(F)(F)F)cc3)c(C(=O)N[C@H](C(=O)O)C(C)(C)C)ccc2c1 [Example 38]            80.8
2  CCC(C)(C)[C@H](NC(=O)c1ccc2ccc(C(F)F)cc2c1OCc1ccc(OC(F)(F)F)cc1)C(=O)O [Example 250]             270
3  O=C(N[C@H](C(=O)O)C(c1ccccc1)c1ccccc1)c1ccc2ccccc2c1OCC1CCCCC1 [Example 199]             129
4  O=C(N[C@@H](Cc1ccc(C(F)(F)F)cc1)C(=O)O)c1ccc2ccccc2c1OCc1ccc(OC(F)(F)F)cc1 [Example 190]            17.9
